// values below are reported CB1R [^3H]CP55,940 Emin
- Assayed Target: hCB1R (Homo sapiens, UniProt P21554)
- Construct: expressed in transfected cells; host or cells: CHO-K1
- Sequence (P21554 whole entry): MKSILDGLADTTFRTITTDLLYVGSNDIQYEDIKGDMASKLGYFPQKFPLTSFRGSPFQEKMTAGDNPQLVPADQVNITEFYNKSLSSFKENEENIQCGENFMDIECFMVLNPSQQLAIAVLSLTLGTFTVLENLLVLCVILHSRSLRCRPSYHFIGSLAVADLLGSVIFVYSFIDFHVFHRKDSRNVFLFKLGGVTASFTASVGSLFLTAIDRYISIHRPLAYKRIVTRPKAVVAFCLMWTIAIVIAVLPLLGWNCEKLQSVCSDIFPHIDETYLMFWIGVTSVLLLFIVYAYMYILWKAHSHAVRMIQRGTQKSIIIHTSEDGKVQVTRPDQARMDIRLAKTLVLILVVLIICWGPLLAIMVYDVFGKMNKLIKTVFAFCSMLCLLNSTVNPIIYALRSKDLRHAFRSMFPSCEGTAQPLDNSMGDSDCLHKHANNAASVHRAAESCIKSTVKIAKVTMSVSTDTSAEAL
- Assay Comment: biochemical
- Format: binding
- Settings: bottom of the concentration–response curve; mean ± SEM
Measurement Name: CB1R [^3H]CP55,940 Emin (%)

Compound: O=C(Oc1cccc2cccnc12)c1nn(CCCCCF)c2ccccc12
Unit Text: %
Experimental Result: 2.3
//
Compound: N#CCCCCn1cc(C(=O)c2cccc3ccccc23)c2ccccc21
Unit Text: %
Experimental Result: 66
//
Compound: CC(C)CCn1cc(C(=O)c2ccc3ccccc3c2)c2ccccc21 [JWH 018 2'-naphthyl-N-(3-methylbutyl) isomer]
Unit Text: %
Experimental Result: 9.6
//
Compound: O=C(c1ccc(Cl)c2ccccc12)c1cn(CCCCCF)c2ccccc12
Unit Text: %
Experimental Result: 76
//
Compound: CCCCCn1cc(C(=O)c2ccc(CCC)c3ccccc23)c2ccccc21
Unit Text: %
Experimental Result: 17
//
Compound: CCCCCn1c2ccccc2c2cc(C(=O)c3cccc4ccccc34)ccc21
Unit Text: %
Experimental Result: 68
//
Compound: CCCCCn1cc(C(=O)c2cccc3ccccc23)cc1-c1ccccc1
Unit Text: %
Experimental Result: 69
//
Compound: CCCC(F)Cn1nc(C(=O)NC(C(N)=O)C(C)C)c2ccccc21 (stereo not drawn) [AB-PINACA N-(2-fluoropentyl) isomer]
Unit Text: %
Experimental Result: 76
//
Compound: CC(C)C(NC(=O)c1nn(Cc2cccc(F)c2)c2ccccc12)C(N)=O (stereo not drawn)
Unit Text: %
Experimental Result: 30
//
Compound: CCC(Cl)CCn1nc(C(=O)NC(C(N)=O)C(C)C)c2ccccc21 (stereo not drawn)
Unit Text: %
Experimental Result: 65
//
Compound: O=C(Nc1cccc2ccccc12)c1cn(Cc2ccc(F)cc2)c2ccccc12
Unit Text: %
Experimental Result: 41
//
Compound: Cc1ccc(C(=O)c2cn(CCCCCCl)c3ccccc23)c2ccccc12
Unit Text: %
Experimental Result: 5.3
//
Compound: COC(=O)[C@@H](NC(=O)c1nn(CCCCF)c2ccccc12)C(C)(C)C
Unit Text: %
Experimental Result: 52
//
Compound: COC(=O)[C@H](Cc1ccccc1)NC(=O)c1cn(CCCCCF)c2ccccc12
Unit Text: %
Experimental Result: 59
//
Compound: CC(C)C(NC(=O)c1nn(Cc2ccccc2F)c2ccccc12)C(N)=O (stereo not drawn)
Unit Text: %
Experimental Result: 16

---

// values below are reported Emax
- Assayed Target: hCB2R (Homo sapiens)
- Construct: host or cells: CHO-K1 (PathHunter)
- Sequence (P34972 whole entry): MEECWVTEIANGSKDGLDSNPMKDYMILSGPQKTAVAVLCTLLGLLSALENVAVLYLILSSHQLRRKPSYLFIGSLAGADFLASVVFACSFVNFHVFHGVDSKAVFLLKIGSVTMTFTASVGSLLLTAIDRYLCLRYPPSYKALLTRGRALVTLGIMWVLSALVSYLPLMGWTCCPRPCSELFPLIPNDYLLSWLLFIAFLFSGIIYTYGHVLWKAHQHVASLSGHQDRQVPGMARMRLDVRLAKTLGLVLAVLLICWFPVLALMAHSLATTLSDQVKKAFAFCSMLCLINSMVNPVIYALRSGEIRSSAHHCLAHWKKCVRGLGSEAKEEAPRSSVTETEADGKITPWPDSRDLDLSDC
- Assay Comment: PathHunter βarrestin2 recruitment, CB2R
- Assay type: cell-based
Measurement Name: Emax

Compound: O=C(Oc1cccc2cccnc12)c1nn(CCCCCF)c2ccccc12
Experimental Result: 120%
--
Compound: CCCCCn1cc(C(=O)c2cccc3ccccc23)cc1-c1ccccc1
Experimental Result: 15%
--
Compound: N#CCCCCn1cc(C(=O)c2cccc3ccccc23)c2ccccc21
Experimental Result: 130%
--
Compound: O=C(c1ccc(Cl)c2ccccc12)c1cn(CCCCCF)c2ccccc12
Experimental Result: 17%
--
Compound: CCCCCc1cc(O)c2c(c1)OC(C)(C)[C@@H]1CCC(C)=C[C@@H]21 [∆^9-THC, ∆^9-tetrahydrocannabinol, reference compound]
Experimental Result: 58%
--
Compound: Cc1ccc(C(=O)c2cn(CCCCCCl)c3ccccc23)c2ccccc12
Experimental Result: 5.5%
--
Compound: CC(C)C(NC(=O)c1nn(Cc2cccc(F)c2)c2ccccc12)C(N)=O (centres unmarked)
Experimental Result: 130%
--
Compound: CC(C)CCn1cc(C(=O)c2ccc3ccccc3c2)c2ccccc21 [JWH 018 2'-naphthyl-N-(3-methylbutyl) isomer]
Experimental Result: 6.1%
--
Compound: CC(C)C(NC(=O)c1nn(Cc2ccccc2F)c2ccccc12)C(N)=O (centres unmarked)
Experimental Result: 120%
--
Compound: CCCCCn1c2ccccc2c2cc(C(=O)c3cccc4ccccc34)ccc21
Experimental Result: 10%
--
Compound: COC(=O)[C@H](Cc1ccccc1)NC(=O)c1cn(CCCCCF)c2ccccc12
Experimental Result: 82%
